All figures here come from patent US20220089592A1.

Please respond with reported IC50 for every item in the list.
# test target: IRAK4 (Homo sapiens)
# Sequence (Q9NWZ3 1-460): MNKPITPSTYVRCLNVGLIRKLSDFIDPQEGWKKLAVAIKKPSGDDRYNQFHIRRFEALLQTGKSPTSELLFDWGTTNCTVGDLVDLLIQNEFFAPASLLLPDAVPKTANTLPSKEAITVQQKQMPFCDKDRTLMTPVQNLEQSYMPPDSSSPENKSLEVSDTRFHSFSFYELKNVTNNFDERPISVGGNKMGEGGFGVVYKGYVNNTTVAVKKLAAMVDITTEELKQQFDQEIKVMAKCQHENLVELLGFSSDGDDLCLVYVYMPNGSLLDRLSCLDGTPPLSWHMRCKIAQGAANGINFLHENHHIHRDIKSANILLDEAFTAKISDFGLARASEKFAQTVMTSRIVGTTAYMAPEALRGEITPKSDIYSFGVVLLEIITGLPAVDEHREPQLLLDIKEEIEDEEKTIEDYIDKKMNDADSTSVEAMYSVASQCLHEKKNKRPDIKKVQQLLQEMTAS
# assay summary: 2-hour 1 mM ATP IRAK4 Biochemical assay (as above, but with 100 pM IRAK4 and 1 mM ATP)
# assay setup: IRAK4 MSD BIOCHEMICAL (1 mM ATP) IC50 (μM), 100 pM IRAK4, 2 hours
Respond with the figure and its unit, in that order.

// for each compound below, give its IC50
1. COC(C)c1cc2nc(C3CCOCC3)cn2cc1NC(=O)c1cccc(C(F)F)n1 (stereo not shown)
2. CC1(C)CCC(Oc2cc3nc(C4CCOCC4)cn3cc2NC(=O)c2cccc(C(F)F)n2)C1 (stereo not shown)
3. COc1nc2nc(C3CC(OC)C3)cn2cc1NC(=O)c1cccc(C(F)F)n1 (stereo not shown)

A:
0.067 µM
0.001 µM
0.032 µM

// for each compound below, give its IC50
1. CCOc1cc2nc(C(F)C3CCOC3)cn2cc1NC(=O)c1cccc(C(F)(F)F)n1 (single isomer, unassigned) [Example 144]
2. CCOc1cc2nc(CC3CCOC3)cn2cc1NC(=O)c1coc(C)n1 (stereo not shown)
3. CCOc1cc2nc(CC3CCOC3)cn2cc1NC(=O)c1cccc(C(F)F)n1 (stereo not shown)
4. CCOc1cc2nc([C@H](F)[C@@H]3CCOC3)cn2cc1NC(=O)c1cccc(C(F)(F)F)n1 (single isomer, unassigned)

A:
1. 0.001 µM
2. 0.051 µM
3. 0.001 µM
4. 0.002 µM

// for each compound below, give its IC50
1. Cc1nc(C(=O)Nc2cn3cc(C45CCC(C)(C4)OC5)nc3c(OC3CCC3)n2)co1 (stereo not shown) [Example 486, 2,2,2-trifluoroacetate]
2. CC(C)Oc1cc2nc(C3CCOCC3)cn2cc1NC(=O)c1cc2ccccn2n1 [Example 381, 2,2,2-trifluoroacetate]
3. CCOc1cc2nc(C3CN(C)C3)cn2cc1NC(=O)c1cccc(C(F)(F)F)n1

A:
1. 0.016 µM
2. 0.004 µM
3. 0.001 µM

====

# test target: IRAK4 (Homo sapiens)
# assay summary: 2-hour 1 mM ATP IRAK4 Biochemical assay (as above, but with 100 pM IRAK4 and 1 mM ATP)
# assay setup: IRAK4 MSD BIOCHEMICAL (1 mM ATP) IC50 (μM), 100 pM IRAK4, 2 hours
Please respond with reported IC50 for every item in the list.
One number for each entry, in µM.

Example entries and their recorded answers appear below.
INSERT INTO results (molecule, unit_descriptor, result_number) VALUES
  ('CCOc1cc2nc(C(O)C3CC3)cn2cc1NC(=O)c1cccc(C(F)(F)F)n1 (stereo not shown)', 'µM', 0.015),
  ('COc1cc(NC(=O)c2cccc(C(F)F)n2)cn2cc(C3CCCOC3)nc12 (single isomer, unassigned) [Example 270]', 'µM', 0.003),
  ('CCOc1cc(NC(=O)c2cccc(C(F)(F)F)n2)cn2cc(C3CCCOC3)nc12 (single isomer, unassigned) [Example 288]', 'µM', 0.008);

// for each molecule below, give its IC50
1. COc1nc(NC(=O)c2cccc(C(F)F)n2)cn2cc(C3CCCOC3)nc12 (stereo not shown) [Example 549]
2. COc1nc(NC(=O)c2cccc(C(F)F)n2)cn2cc([C@@]34CC[C@@](C)(C3)OC4)nc12 (single isomer, unassigned) [Example 276]
3. O=C(Nc1cn2cc(C3CCOCC3)nc2cn1)c1csc(C2CC2)n1
4. COc1ncccc1C(=O)Nc1cn2cc(C34COC(C)(C3)C4)nc2cc1OC(C)C(F)(F)F (racemic) [Example 317]

A:
0.005
0.005
0.108
0.001
